meta.source: patent US10517889B2

Tested on: human SMAD7 mRNA
Assay: Dose-dependent inhibition of human SMAD7 mRNA expression in Hep3B cells (Example 3, Study 1 and 2)
Format: cell-based
Settings: 740 nM, electroporation, approximately 16 hours, Study 2, relative to untreated control cells
Strand notation (5' to 3'): a small letter for the sugar, then the base; units joined by * are phosphorothioate-linked, units joined directly phosphodiester-linked; [ ] holds rarer units or linkages, { } end groups; capitals alone tell only the bases. k = constrained ethyl (cEt); [5mC] = 5-methylcytosine; d = 2'-deoxy (DNA)
REPORTED ENDPOINT: % inhibition of SMAD7 mRNA expression (%)
Numbers only, in %.

Completed entries (count: 2):
{"columns": ["SUBSTANCE", "ASSAYED TARGET", "% inhibition of SMAD7 mRNA expression (%)"],
 "data": [
  ["830097 (k[5mC]*k[5mC]*kA*dT*d[5mC]*dT*dA*dA*d[5mC]*dA*dA*d[5mC]*dA*kT*k[5mC]*k[5mC]; antisense) [compound 830097]", "human SMAD7 mRNA", 29],
  ["772553 (antisense kT*k[5mC]*kT*dT*dG*dA*dG*d[5mC]*dA*d[5mC]*d[5mC]*dG*dA*kG*kT*kG) [compound 772553]", "human SMAD7 mRNA", 36]
]}

Req: Give a short answer stating reported % inhibition of SMAD7 mRNA expression for 799781 (kG*kT*k[5mC]*dA*dA*dT*dA*d[5mC]*dA*dT*dA*dT*dT*kT*kG*k[5mC]; antisense) [compound 799781] .
Resp: 23
